# test system: Cellular tumor antigen p53 (Homo sapiens) (UniProt P04637)
# Sequence (P04637 whole entry, looked up): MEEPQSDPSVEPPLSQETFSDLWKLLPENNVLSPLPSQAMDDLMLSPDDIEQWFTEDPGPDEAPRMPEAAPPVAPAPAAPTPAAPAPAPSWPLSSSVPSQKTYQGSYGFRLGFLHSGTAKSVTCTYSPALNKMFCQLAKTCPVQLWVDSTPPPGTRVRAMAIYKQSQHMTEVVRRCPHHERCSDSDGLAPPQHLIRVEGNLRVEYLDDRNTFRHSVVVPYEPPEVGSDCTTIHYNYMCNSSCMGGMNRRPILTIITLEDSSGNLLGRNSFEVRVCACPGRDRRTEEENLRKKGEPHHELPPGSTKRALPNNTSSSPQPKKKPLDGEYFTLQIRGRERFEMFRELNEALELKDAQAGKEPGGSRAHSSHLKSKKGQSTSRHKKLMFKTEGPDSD
# method: TOX21_p53_BLA_p4_ratio: Tox21 HCT-116 p53 Agonism Beta-lactamase Assay, Ratio, Phase 4 (AID 2283601)
Results filed as inconclusive are left out. Active and inactive are the calls of the source. Rule for the calls: active = hit-call score of the fitted dose curve at least 0.9, where 1 is the maximum; inconclusive = response in the unintended direction; inactive = score below 0.9.
In this exercise, the only acceptable responses are active, inactive

For orientation, consider the following solved cases.
compound: c1ccc2ccccc2c1
test system: Cellular tumor antigen p53 (Homo sapiens) (UniProt P04637)
category label: inactive

compound: CC(O)CC(C)(C)O (stereo not given)
test system: Cellular tumor antigen p53 (Homo sapiens) (UniProt P04637)
category label: inactive

compound: CN(C)C(=O)C1(N2CCCCC2)CCN(CC[C@@]2(c3ccc(Cl)c(Cl)c3)CN(C(=O)c3ccccc3)CCO2)CC1
test system: Cellular tumor antigen p53 (Homo sapiens) (UniProt P04637)
category label: active

Query string: So what was the verdict on CN(C[C@@H](CC[N+]12CCC(C3CCCCC3)(CC1)CC2)c1ccc(Cl)c(Cl)c1)C(=O)c1cc(C(F)(F)F)cc(C(F)(F)F)c1 in this test?
Result string: active

Query string: So what was the verdict on CC(C)(C)c1csc(-c2cc3cc(OCc4ccccc4CC(=O)O)ccc3o2)n1 in this test?
Result string: active
